system: CCRF-CEM leukemia; assay: NCI-60 one-dose screen, 48 h (100 = growth as untreated, 0 = no growth, -100 = all killed); conditions: 10 µM unless noted
About 83,000 compounds went through this panel and 20% of them were active in at least one assay; those are over-represented in the sample as a whole.

| molecule | u | growth |
| --- | --- | --- |
| COC1C(O)CC(OC2CC(OC3CC(O[C@@H]4C(=O)c5c(cc6cc(OC7CC(OC8CC(O)C(O)C(C)O8)C(O)C(C)O7)c(C)c(O)c6c5O)CC4[C@H](OC)C(=O)O)OC(C)C3O)OC(C)C2O)OC1C (some centres not stated) | % | 46.1 |
| Cc1ccc2c(c1)sc1nc(-c3c[nH]c4ccccc34)c(Nc3ccccc3)n12 | % | 107 |
| Cc1ccc(-c2nc(SCC(=O)N3CCN(c4cc5c(cc4F)c(=O)c(C(=O)O)cn5C4CC4)CC3)nc(Cl)c2C#N)cc1 | % | 106 |
| O=C(NN1C(=O)CSC1c1cccc([N+](=O)[O-])c1)c1ccc(NC(=O)c2ccccn2)cc1 (configuration not stated) | % | 110 |
| CS(=O)(=O)Nc1cc(-c2ccc3ncnc(Nc4ccc(F)c(Cl)c4)c3c2)ccc1Cl | % | 30.2 |
| CCOC(=O)/C(=C(/C)NCC(C)C)c1cc(O)c(O)c2c(C)cc(=O)[nH]c12 | % | 11.2 |
| CN(C)CCC(CCN(C)C)(C(=O)O)c1ccccc1 | % | 100 |
| O=C(O)c1cn(C2CC2)c2cc(N3CCN(C(=O)N4CCOCC4)CC3)c(F)cc2c1=O | % | 108 |
| CNC(=O)c1cc(Oc2ccc3c(c2)sc2nc(-c4ccc(NC(=O)[C@@H](NC(=O)OC)C(C)C)cc4)cn23)ccn1 | % | 23.5 |
| Cc1nc2ccccc2c(/C=C/c2ccc(F)cc2)c1C(=O)/C=C/c1ccccc1 | % | 7.91 |
| CC[C@H](Nc1nc(N)nc(C)c1C#N)c1nc2cccc(CN(C)c3ncc(C(=O)NO)cn3)c2c(=O)n1-c1ccccc1 | % | 15.3 |
| CN(C)c1ccc(/C=C2\C=C(c3nc4ccccc4s3)OC2=O)cc1 | % | 99 |
| CN(C)c1ccc([C@@H](C(=O)Nc2cccc([N+](=O)[O-])c2)N(C(=O)c2cc3ccccc3[nH]2)c2cccc([N+](=O)[O-])c2)cc1 | % | 96.1 |
| C=C(C)[C@@H]1CC[C@]2(C(=O)N3CCN(C)CC3)CC[C@]3(C)[C@H](CC[C@@H]4[C@@](C)(CCC(=O)O)[C@H](C(=C)C)CC[C@]43C)[C@@H]12 | % | 70.7 |
| C=C1SC(=Nc2ccccc2Cl)N(C(=O)c2sc3ccccc3c2Cl)C1(C)C | % | 19.8 |
| Cc1cn(C)cn1 | % | 97.3 |
| Cc1nc2sc(C(=O)Nc3cccc(Cl)c3C)c(N)c2cc1C(=O)/C=C/c1ccccc1 | % | 8.78 |

====

Test system: UO-31 renal
Test: NCI-60 one-dose screen, 48 h
Settings: 10 µM unless noted
Method: Growth inhibition of the UO-31 human tumor cell line is measured as a screen for anti-cancer activity. Cells are grown in 96 well plates and exposed to the test compound for 48 hours. Compounds are tested at a single concentration, which is 10^-5 M for most compounds. The reported endpoint is percent growth (GI% or GIPRCNT), where numbers from 0 - 100% represent growth inhibition, and numbers from -100% - 0 represent cell death. For example, a value of 40 represents 60% growth inhibition. […]
About 83,000 compounds went through this panel and 20% of them were active in at least one assay; those are over-represented in the sample as a whole. The source made the active and inactive calls. Rule for the calls: active = growth percent below 10; inactive = the rest.
Classes used: active, inactive

| compound | assigned class |
| --- | --- |
| CSc1ccc2c3c(n(CCCn4ccnc4)c(=O)c2c1)-c1ccccc1C3=O | inactive |
| COc1ccc(Nc2ncc(I)c(NCCCNC(=O)C3CCC3)n2)cc1 | active |
| CC[C@@H](C(=O)[C@@H](C)[C@@H](O)[C@H](C)[C@@H]1O[C@@H]([C@@H](CC)C(=O)ONC(=O)c2ccccc2O)CC[C@@H]1C)C1O[C@]2(C=CC(=O)[C@]3(CC[C@@](C)([C@H]4CC[C@](O)(CC)[C@H](C)O4)O3)O2)[C@H](C)C[C@@H]1C (some centres not stated) | inactive |
| COC(=O)/C=C1/SC(=NCc2ccccc2)N(CCc2c[nH]c3ccccc23)C1=O | inactive |
| COC(=O)c1nc(-c2ccccc2)oc1S(=O)(=O)N1CCCC(C)C1 (configuration not stated) | inactive |
| Cc1c2ccccc2nc2cc3c(cc12)[C@H]1CC[C@]2(C)C(=O)CC[C@H]2[C@@H]1CC3 | inactive |
| C[N+]1=C(/C=C/c2ccccc2Cl)C(C)(C)c2ccccc21 | inactive |
| O=C(NCCCCO)c1cncnc1Nc1ccc2c(ccn2Cc2cccc(F)c2)c1 | inactive |
| COCC(=O)Oc1cc(-c2ccc(C)cc2C)c(OC(=O)COC)c(-c2ccc(C)cc2C)c1 | inactive |
| Cc1ccc(S(=O)(=O)c2nc(-c3ccccc3)oc2SCC(N)=O)cc1 | inactive |
| COc1ccc(/C=C2\CN(C(=O)C(Cl)Cl)C/C(=C\c3ccc(OC)c(OC)c3)C2=O)cc1OC | active |
| COc1ccc2c(c1)oc1c(C)c3c(c(C)c12)C(=O)N(CCOS(C)(=O)=O)C3=O | inactive |
| CNC(=O)Nc1ccc(-c2ccc3ncnc(Nc4cccc(Cl)c4)c3c2)cc1 | inactive |
| Cc1cc2oc(/C=C/c3ccccc3)cc(=O)c2c(C)c1Cl | inactive |
| COC(=O)/C(CCC=C(C)C)=C1\[C@@H](OC(C)=O)C[C@@]2(C)[C@H]1C/C(=N/O)[C@H]1[C@@]3(C)CC/C(=N\O)[C@@H](C)[C@@H]3CC[C@@]12C | inactive |
| CCN(CCNc1ccc(C)c2sc3cc(Cl)ccc3c(=O)c12)CC(C)(C)O | inactive |
| O=C1C(Cl)=C(Nc2ccccc2)C(=O)c2ccccc21 | active |
| COc1cc(/C=C/C(=O)N2CCN(C(=O)c3cc(OC)c(OC)c(OC)c3)CC2)ccc1OCCCOc1cc2c(cc1OC)C(=O)N1CCC[C@H]1C=N2 | active |
| CCOC(=O)c1cn2ncnc(Oc3ccc(NC(=O)NC4CC4)c(Cl)c3)c2c1C | inactive |
| CSc1nc2ccc(C)cc2cc1/C=C1/C=C(c2ccccc2)NC1=O | inactive |
| N=C(N)c1ccc(OCCSCCOc2ccc(C(=N)N)cc2)cc1 | inactive |
| O=C(O)CCCCCCCCCCN1C(=O)/C(=C2/C(=O)N(CC(=O)O)c3ccc(Br)cc32)SC1=S | inactive |
| Cc1sc2nc(NCCN)[nH]c(=O)c2c1C | inactive |
| Fc1cc2[nH]ncc2c2c3c(c(-c4cn[nH]c4C(F)(F)F)nc12)CCCC3 | active |
| CCOC(=O)C1=C(CCl)N(C)C(=O)NC1c1ccc2c(c1)OCO2 (configuration not stated) | inactive |
| CCOC(=O)C1=C(c2ccccc2)N=C2N(c3ccccc3)N=C(C(C)=O)N2C1c1ccc(F)cc1 (configuration not stated) | inactive |
| COc1ccc(/C=C2\c3cc(OC)c(OC)c(OC)c3CC[C@@H]2O)cc1F | inactive |
| Cc1ccc2cnc(N)c(C#Cc3cc(C(=O)Nc4ccc(CN5CCN(C)CC5)c(C(F)(F)F)c4)cnc3C)c2c1 | active |
| CC1(C)N=C(N)N=C(N)N1c1ccc(S(=O)(=O)Nc2nccs2)cc1 | inactive |
| O=c1cc(-c2ccccc2)nc(SCc2nc3cc(Cl)c(Cl)cc3[nH]2)[nH]1 | inactive |
| CCCC(=O)NC(c1ccc2c(c1)OCO2)c1cc(Cl)c2cccnc2c1O (configuration not stated) | active |
| O=C(Oc1ccc2c(c1)sc1nc(-c3ccccc3)[nH]c(=O)c12)C(F)(F)F | inactive |
| COc1ccc2c(c1)c(-c1nc(-c3ccc4ccccc4c3)cs1)cn2C | inactive |
| O=C(O)c1cn(C2CC2)c2cc(N3CCN(C(=O)N4CCOCC4)CC3)c(F)cc2c1=O | inactive |
| N#Cc1c(-c2ccccc2)nc2c(c(-c3ccc(Cl)cc3)nn2-c2ccccc2)c1-c1ccc([N+](=O)[O-])cc1 | inactive |
| COc1ccc(-c2cc(-c3cccnc3)nc3sc4c(N)c(C(C)=O)c(-c5ccccc5)nc4c23)cc1OC | inactive |
| CCN(CC)CCCC(Cc1ccccc1)Nc1c2ccc(Cl)cc2nc2ccc(OC)cc12 (configuration not stated) | active |

====

tested on: HT29 colon; experiment: NCI-60 one-dose screen, 48 h; conditions: 10 µM unless noted
Compounds without any hit were thinned out: in the full panel of roughly 83,000, 20% have a hit. Activity calls are given as the source filed them. How the source made its calls: active means growth percent below 10; inactive means the rest.
Outcomes: label 1 for active, label 0 for inactive

| compound | target or system | assigned class |
| --- | --- | --- |
| COc1cc(/C=C/C(=O)N2CCN(C(=O)c3cc(OC)c(OC)c(OC)c3)CC2)ccc1OCCCOc1cc2c(cc1OC)C(=O)N1CCC[C@H]1C=N2 | HT29 colon | label 0 |
| Clc1ccc2nn3c4ccccc4c(OCCN4CCOCC4)nc3c2c1 | HT29 colon | label 0 |
| CN1C(=O)N2CN3CCCN(C3)CN3C(=S)NC1C23 (stereo not given) | HT29 colon | label 0 |
| Cc1ccccc1N1CCN(C(=S)c2ccccc2)CC1 | HT29 colon | label 0 |
| CN(C)c1ccc(/C=N\NC(=O)c2ccc3nc(-c4ccc(Cl)cc4)[nH]c3c2)cc1 | HT29 colon | label 1 |
| CC[C@H](Nc1nc(N)nc(C)c1C#N)c1nc2cccc(CN(C)c3ncc(C(=O)NO)cn3)c2c(=O)n1-c1ccccc1 | HT29 colon | label 1 |
| O=[N+]([O-])c1ccccc1Sc1ccccc1[N+](=O)[O-] | HT29 colon | label 0 |
| CC(=O)c1ccc(-n2cc(CN3CCN(c4cc5c(cc4F)c(=O)c(C(=O)O)cn5C4CC4)CC3)nn2)cc1 | HT29 colon | label 0 |
| CCOC(=O)C#Cc1c(C(=O)OCC)nnn1[C@@H]1O[C@H](COC)[C@@H](OC)[C@H]1OC | HT29 colon | label 0 |
| CCCCCCCCCCOC(=O)c1nn(C(C)=O)c2cc(C)c(C)cc12 | HT29 colon | label 0 |
| N#Cc1ccc(/C=C/c2cn(-c3ccccc3)nc2-c2cccc([N+](=O)[O-])c2)cc1 | HT29 colon | label 0 |
| C1CCC(N2CN3c4nonc4N4CN(C5CCCCC5)CN5c6nonc6N(C2)C3C45)CC1 (stereo not given) | HT29 colon | label 0 |
| NS(=O)(=O)c1ccc(C(=O)NN2C(=O)c3ccccc3C2=O)cc1 | HT29 colon | label 0 |
| CCOC(=O)c1nnn(-c2no[n+]([O-])c2-c2ccc(OC)cc2)c1COc1cccc2cccnc12 | HT29 colon | label 1 |
| O=C1/C(=C/c2ccc(Cl)cc2)CN(C(=O)C(Cl)Cl)C/C1=C\c1ccc(Cl)cc1 | HT29 colon | label 1 |
| CCCN(CCSSCCNc1nc(N(C)O)nc(N(C)O)n1)c1nc(N(C)O)nc(N(C)O)n1 | HT29 colon | label 0 |
| CCN(CC)CCN1C(=O)c2c(c3c4ccccc4[nH]c3c3ccc4ccccc4c23)C1=O | HT29 colon | label 1 |
| COc1ccc(-c2nc(SCC(=O)Nc3nc4ccc(C)cc4s3)[nH]c(=O)c2C#N)cc1OC | HT29 colon | label 0 |
| COc1cccc(CNc2c3ccccc3nc3ccccc23)c1OC | HT29 colon | label 0 |
| CN(C)CCCn1c2c(c3cnccc3c1=O)C(=O)c1ccccc1-2 | HT29 colon | label 1 |
